biological target: TbMCP-1 (Trypanosoma brucei); test: Continuous fluorogenic (FRET) TbMCP-1 assay with Abz-RFFK(Dnp)-OH, primary and secondary screening; assay type: biochemical; conditions: four-parameter Hill fit of dose-response curve
Sequence (Q386R0 entry or part of it): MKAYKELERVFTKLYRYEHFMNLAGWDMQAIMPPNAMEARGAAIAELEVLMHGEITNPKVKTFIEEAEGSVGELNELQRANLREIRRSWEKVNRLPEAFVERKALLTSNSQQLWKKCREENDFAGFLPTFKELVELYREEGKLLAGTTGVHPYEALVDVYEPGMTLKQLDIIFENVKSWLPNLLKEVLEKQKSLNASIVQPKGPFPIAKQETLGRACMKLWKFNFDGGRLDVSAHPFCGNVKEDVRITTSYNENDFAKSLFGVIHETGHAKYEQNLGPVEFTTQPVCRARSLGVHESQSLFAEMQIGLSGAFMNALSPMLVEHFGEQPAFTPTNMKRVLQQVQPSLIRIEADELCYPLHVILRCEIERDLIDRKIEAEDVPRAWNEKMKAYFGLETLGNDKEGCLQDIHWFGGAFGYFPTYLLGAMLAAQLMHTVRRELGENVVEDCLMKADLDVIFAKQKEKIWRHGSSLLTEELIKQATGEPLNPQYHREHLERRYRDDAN
Measured Metric: TbMCP-1 Hill Slope

Task: Provide the documented TbMCP-1 Hill Slope with TbMCP-1 (Trypanosoma brucei) as the system for "COc1ccc2ncc(Cl)c(CCN3CC[C@@H](NCc4cc5c(cn4)OCS5)[C@H](O)C3)c2n1"
Output: -0,8371

Task: Provide the documented TbMCP-1 Hill Slope with TbMCP-1 (Trypanosoma brucei) as the system for "O=C(c1cccc(Cl)c1Cl)N1CCn2c1nc(-c1ccncc1)cc2=O"
Output: -1,2409

Task: Provide the documented TbMCP-1 Hill Slope with TbMCP-1 (Trypanosoma brucei) as the system for CN(CC1CCCO1)S(=O)(=O)c1ccc(C(=O)Nc2nc(-c3ccccn3)cs2)cc1 (centres unmarked)
Output: -1,562

Task: Provide the documented TbMCP-1 Hill Slope with TbMCP-1 (Trypanosoma brucei) as the system for Fc1ccccc1N1CC2CCN(c3cccnc3)CC2C1 (centres unmarked)
Output: -1,206

Task: Provide the documented TbMCP-1 Hill Slope with TbMCP-1 (Trypanosoma brucei) as the system for "N#Cc1cc([N+](=O)[O-])ccc1NC1CCCCCC1"
Output: -1,466
